assay method text: qHTS assay to identify small molecule antagonists of the estrogen receptor alpha (ER-alpha) signaling pathway using the BG1 cell line in the presence of 0.1 nM 17-beta-estradiol - cell viability counter screen (AID 1259241); note: nearly all actives have a fitted effect of over 40% in size
assay setup: VM7Luc4E2 (BG1) viability, CellTiter-Fluor protease, 22 h, 0.1 nM estradiol agonist added; series mostly up to 92.4 µM
Text: National Center for Advancing Translational Sciences [NCATS] NIH Chemical Genomics Center [NCGC] U.S. Environmental Protection Agency [EPA] National Institutes of Environmental Health Sciences [NIEHS] National Toxicology Program [NTP] U.S. Food and Drug Administration [FDA] Estrogen receptor (ER), a member of the nuclear hormone receptor plays an important role in development, metabolic homeostasis and reproduction. […]
Inconclusive results are not listed. Activity calls are given as the source filed them. Calls come from the whole dose curve; as a rule, active = well fitted cell-killing curve with a large enough effect in the repeat runs; inconclusive = weak or mixed curves, or effect the other way; inactive = flat fitted curve, though single readings scatter.
Result category, one only: t = active, f = inactive

### Prompt Name the outcome recorded for COC(=O)C(Br)CBr (stereo unspecified) in the assay.
### Response f

### Prompt Name the outcome recorded for "C[C@H]1CNCCc2ccc(Cl)cc21" in the assay.
### Response f

### Prompt Name the outcome recorded for "CC[C@H]1C[C@H]2[C@@H]3CCC4=CC(=O)CC[C@@H]4[C@H]3CC[C@]2(C)[C@H]1O" in the assay.
### Response f

### Prompt Name the outcome recorded for CNP(=O)(OC)Oc1ccc(C(C)(C)C)cc1Cl (stereo unspecified) in the assay.
### Response f

### Prompt Name the outcome recorded for "COCCOCCO" in the assay.
### Response f

### Prompt Name the outcome recorded for CCCC(Cn1cncn1)c1ccc(Cl)cc1Cl (stereo unspecified) in the assay.
### Response f

### Prompt Name the outcome recorded for "COC(=O)C(Cl)C(=O)OC" in the assay.
### Response f

### Prompt Name the outcome recorded for COC(=O)C(C)N(C(=O)Cc1ccccc1)c1c(C)cccc1C (stereo unspecified) in the assay.
### Response f

### Prompt Name the outcome recorded for CC(Cl)C(C)Cl (stereo unspecified) in the assay.
### Response f

### Prompt Name the outcome recorded for "CO/N=C(/C(=O)OC)c1ccccc1COc1ccccc1C" in the assay.
### Response f

### Prompt Name the outcome recorded for "c1ccc(CN2CCNCC2)cc1" in the assay.
### Response f

### Prompt Name the outcome recorded for "CCCCCC[N+](=O)[O-]" in the assay.
### Response f

### Prompt Name the outcome recorded for "O=C(NC(=O)c1c(F)cccc1F)Nc1cc(Cl)c(Oc2ncc(C(F)(F)F)cc2Cl)c(Cl)c1" in the assay.
### Response f

### Prompt Name the outcome recorded for "O=C(C(Cl)(Cl)Cl)C(Cl)(Cl)Cl" in the assay.
### Response f

### Prompt Name the outcome recorded for "CCCCN=C=O" in the assay.
### Response f

### Prompt Name the outcome recorded for "Cl/C=C\Cl" in the assay.
### Response f

### Prompt Name the outcome recorded for "C=CC(=O)OCCCCO" in the assay.
### Response f

### Prompt Name the outcome recorded for "CCCC(=O)Cl" in the assay.
### Response f

### Prompt Name the outcome recorded for "Clc1cccc(SC2CCNCC2)n1" in the assay.
### Response f

### Prompt Name the outcome recorded for "CN(C)c1ccc(N(C)C)cc1" in the assay.
### Response t

### Prompt Name the outcome recorded for "COc1nn(C(=O)NS(=O)(=O)c2ccccc2OC(F)(F)F)c(=O)n1C" in the assay.
### Response f

### Prompt Name the outcome recorded for "O=C1CN=C(c2ccccc2)c2cc(Cl)ccc2N1CC1CC1" in the assay.
### Response f

### Prompt Name the outcome recorded for "O=C=Nc1ccc(Cl)cc1" in the assay.
### Response f

### Prompt Name the outcome recorded for "CCCN(CCCl)c1c([N+](=O)[O-])cc(C(F)(F)F)cc1[N+](=O)[O-]" in the assay.
### Response f

### Prompt Name the outcome recorded for "O=S(=O)(Cl)c1ccccc1" in the assay.
### Response f

### Prompt Name the outcome recorded for "O=C(N[C@H](c1ccccc1)[C@@H]1CN2CCC1CC2)c1c(Cl)ccc(C(F)(F)F)c1Cl" in the assay.
### Response f
